System: A549
Assay: in vitro screen against human tumor cell line A549 (lung), GI50
Format: cell-based
Settings: Homo sapiens, A549, Example 2, Table 3, 13-aza-cryptopleurines; read-out: GI50 A549
Measured Property: GI50 (µM)
Report the value in µM with no unit label.

Worked examples follow.
[[record]]
compound = "COc1ccc2c3c(c4cc(OC)c(OC)cc4c2c1)C[C@H]1CN(CCO)CCN1C3 [Compound 8j]"
tested_system = "A549"
measured_property = "GI50"
recorded_result = 14.1

[[record]]
compound = "COc1ccc2c3c(c4cc(OC)c(OC)cc4c2c1)C[C@H]1CN(C2CC2)CCN1C3 [Compound 8h]"
tested_system = "A549"
measured_property = "GI50"
recorded_result = 23.2

[[record]]
compound = "COc1ccc2c3c(c4cc(OC)c(OC)cc4c2c1)CC1CN(Cc2ccccc2)CCN1C3 (stereo in doubt) [Compound 8n, (R)-13-aza-13N-benzyl-cryptopleurine]"
tested_system = "A549"
measured_property = "GI50"
recorded_result = 16.4

[[record]]
compound = "CCN1CCN2Cc3c(c4cc(OC)c(OC)cc4c4cc(OC)ccc34)C[C@H]2C1 [Compound 8b, (S)-13-aza-13N-ethyl-cryptopleurine]"
tested_system = "A549"
measured_property = "GI50"
recorded_result = 7.13

[[record]]
compound = "COC(=O)CN1CCN2Cc3c(c4cc(OC)c(OC)cc4c4cc(OC)ccc34)C[C@H]2C1 [Compound 8f]"
tested_system = "A549"
measured_property = "GI50"
recorded_result = 14.7


Attention now shifts to the item below.
What GI50 value was documented for this compound, COc1ccc2c3c(c4cc(OC)c(OC)cc4c2c1)CC1CN(CC(C)C)CCN1C3 (stereo in doubt) [Compound 8m, (R)-13-aza-13N-isobutyl-cryptopleurine] ?
12.9

----------
Tested on: A549
Experiment: in vitro screen against human tumor cell line A549 (lung), GI50
Type: cell-based
Settings: Homo sapiens, A549, Example 2, Table 3, 13-aza-cryptopleurines; read-out: GI50 A549
Measured Property: GI50 (µM)
Report the value in µM with no unit label.

Worked examples follow.
[[record]]
molecule = "COc1ccc2c3c(c4cc(OC)c(OC)cc4c2c1)C[C@H]1CN(C(=O)c2ccccc2)CCN1C3 [Compound 8i, (S)-13-aza-13N-benzoyl-cryptopleurine]"
tested_system = "A549"
measured_property = "GI50"
recorded_result = 15

[[record]]
molecule = "COc1ccc2c3c(c4cc(OC)c(OC)cc4c2c1)C[C@H]1CN(CC2CC2)CCN1C3"
tested_system = "A549"
measured_property = "GI50"
recorded_result = 0.79


Attention now shifts to the item below.
What GI50 value was documented for this molecule, COC(=O)N1CCN2Cc3c(c4cc(OC)c(OC)cc4c4cc(OC)ccc34)C[C@H]2C1 ?
10.9

----------
System: KB
Experiment: in vitro screen against human tumor cell line KB (nasopharyngeal), GI50
Format: cell-based
Settings: Homo sapiens, KB, Example 3, Table 1; read-out: GI50 KB
Measured Property: GI50
Report the figure along with its unit, number first.

Worked examples follow.
[[record]]
compound = "COc1ccc2c3c(c4cc(OC)c(OC)cc4c2c1)C[C@H]1[C@H](O)CCN1C3"
tested_system = "KB"
recorded_result = "500 nM"

[[record]]
compound = "COc1ccc2c3c(c4cc(OC)c(OC)cc4c2c1)C[C@H]1C[C@@H](O)CCN1C3 [Compound 13a, (13S,14aS)-13-hydroxyl-eryptopleurine]"
tested_system = "KB"
recorded_result = "43 nM"

[[record]]
compound = "COc1ccc2c3c(c4cc(OC)c(OC)cc4c2c1)C[C@H]1C[C@H](O)CCN1C3 [Compound 13b, (13R,14aS)-13-hydroxyl-cryptopleurine]"
tested_system = "KB"
recorded_result = "23 nM"

[[record]]
compound = "COc1ccc2c3c(c4cc(OC)c(OC)cc4c2c1)C[C@H]1C[C@H](O)CN1C3 [Compound 9b, (12S,13aS)-12-hydroxyl-antofine]"
tested_system = "KB"
recorded_result = "1810 nM"

[[record]]
compound = "COc1ccc2c3c(c4cc(OC)c(OC)cc4c2c1)C[C@H]1CCCN1C3 [R-antofine, reference compound]"
tested_system = "KB"
recorded_result = "36 nM"


Item: COc1ccc2c3c(c4cc(OC)c(OC)cc4c2c1)C[C@H]1CCC(=O)CN1C3 [Compound 18, (R)-12-oxo-cryptopleurine] Test system: KB Read-out: GI50 Value: ?
734 nM

What do you get for COc1ccc2c3c(c4cc(OC)c(OC)cc4c2c1)C[C@H]1C[C@H](O)[C@@H](O)CN1C3 [Compound 24a] ?
840 nM

What do you get for COc1ccc2c3c(c4cc(OC)c(OC)cc4c2c1)C[C@H]1C[C@@H](O)[C@H](O)CN1C3 [Compound 24b] ?
17500 nM

What do you get for COc1ccc2c3c(c4cc(OC)c(OC)cc4c2c1)C[C@H]1CC[C@@H](O)CN1C3 [Compound 19a, (12R,14aR)-12-hydroxyl-cryptopleurine] ?
33 nM

What do you get for COc1ccc2c3c(c4cc(OC)c(OC)cc4c2c1)C[C@H]1C[C@@H](O)CN1C3 [Compound 9a, (12R,13aS)-12-hydroxyl-antofine] ?
780 nM

What do you get for COc1ccc2c3c(c4cc(OC)c(OC)cc4c2c1)C[C@H]1CC(=O)CN1C3 [Compound 8, (S)-12-oxo-antofine] ?
500 nM

What do you get for COc1ccc2c3c(c4cc(OC)c(OC)cc4c2c1)C[C@H]1C[C@@H](OC)CCN1C3 [Compound 26a, (13S,14aS)-13-methoxy-cryptopleurine] ?
5240 nM

What do you get for COc1ccc2c3c(c4cc(OC)c(OC)cc4c2c1)C[C@H]1[C@@H](O)CCN1C3 ?
1830 nM
